# assay system: ΔF508-CFTR (Homo sapiens, UniProt P13569, DEL508-508)
# Construct: host or cells: CFBE41o-, doxycycline-inducible
# Sequence (P13569 with tags, fused parts or gaps DEL508-508): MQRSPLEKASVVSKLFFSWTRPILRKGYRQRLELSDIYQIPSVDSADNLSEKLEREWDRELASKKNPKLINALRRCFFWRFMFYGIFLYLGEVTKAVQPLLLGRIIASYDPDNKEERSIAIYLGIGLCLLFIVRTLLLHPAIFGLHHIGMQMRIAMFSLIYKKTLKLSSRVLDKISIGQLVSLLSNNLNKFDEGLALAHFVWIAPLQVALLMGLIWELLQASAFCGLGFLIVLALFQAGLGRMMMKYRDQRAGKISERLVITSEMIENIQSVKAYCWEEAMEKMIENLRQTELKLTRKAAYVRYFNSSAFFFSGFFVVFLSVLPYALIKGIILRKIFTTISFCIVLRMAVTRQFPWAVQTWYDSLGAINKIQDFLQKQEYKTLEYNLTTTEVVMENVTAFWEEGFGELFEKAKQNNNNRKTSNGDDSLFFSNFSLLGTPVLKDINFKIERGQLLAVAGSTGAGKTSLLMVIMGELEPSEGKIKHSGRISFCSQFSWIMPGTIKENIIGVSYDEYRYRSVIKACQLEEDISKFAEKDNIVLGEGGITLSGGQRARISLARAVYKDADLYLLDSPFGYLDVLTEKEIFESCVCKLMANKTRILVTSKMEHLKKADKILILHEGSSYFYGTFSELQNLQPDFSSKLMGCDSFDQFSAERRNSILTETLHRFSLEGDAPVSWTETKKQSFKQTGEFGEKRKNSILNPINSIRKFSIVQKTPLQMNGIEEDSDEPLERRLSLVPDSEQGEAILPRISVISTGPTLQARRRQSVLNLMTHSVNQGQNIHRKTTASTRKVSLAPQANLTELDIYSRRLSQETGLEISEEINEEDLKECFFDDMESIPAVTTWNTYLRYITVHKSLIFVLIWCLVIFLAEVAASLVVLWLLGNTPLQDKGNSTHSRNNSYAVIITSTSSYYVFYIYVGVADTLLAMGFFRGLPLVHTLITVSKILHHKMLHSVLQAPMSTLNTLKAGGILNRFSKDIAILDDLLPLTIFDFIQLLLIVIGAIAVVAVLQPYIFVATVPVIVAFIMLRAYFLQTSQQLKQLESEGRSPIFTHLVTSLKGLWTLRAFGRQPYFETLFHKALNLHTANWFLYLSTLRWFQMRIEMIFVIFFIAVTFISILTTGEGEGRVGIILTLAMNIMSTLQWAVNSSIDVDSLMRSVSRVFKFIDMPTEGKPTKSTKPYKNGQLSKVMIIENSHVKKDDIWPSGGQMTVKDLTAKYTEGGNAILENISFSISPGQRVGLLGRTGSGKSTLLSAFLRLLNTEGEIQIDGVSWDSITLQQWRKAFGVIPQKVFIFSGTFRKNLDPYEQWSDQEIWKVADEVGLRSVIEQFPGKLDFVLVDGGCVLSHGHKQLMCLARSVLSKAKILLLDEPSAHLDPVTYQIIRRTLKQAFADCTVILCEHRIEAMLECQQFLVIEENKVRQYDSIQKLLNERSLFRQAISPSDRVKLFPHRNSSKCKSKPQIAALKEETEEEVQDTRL
# test description: CFTR cell surface levels using HRP-tagged ΔF508-CFTR expressing CFBE cells, in the presence of a co-corrector
# Type: cell-based
# settings: HRP-tagged ΔF508-CFTR CFBE cells, in the presence of 3 μM co-corrector
Examples of compounds with documented % Activation follow.
Write down the numeric answer in % and omit the unit.

Data point: COCCS(=O)(=O)NC(=O)c1cc(N2CCC(COC)CC2)c2c(C(C)C)nn(-c3ccc(F)cc3)c2n1 [Compound 236] ; % Activation = 497.5

Data point: COCC1CCN(c2cc(C(=O)NS(=O)(=O)CCl)nc3c2c(C2CCC2)nn3-c2ccccc2)CC1 [AC07] ; % Activation = 466.9

Data point: Cc1cc(-n2nc(C3CCC3)c3c(N4CCC(N5CCOCC5)CC4)cc(C(=O)NS(=O)(=O)N(C)C)nc32)ccc1F [Compound 511] ; % Activation = 432.95

Data point: COC1CCN(C2CCN(c3cc(C(=O)NS(=O)(=O)N4CC(F)C4)nc4c3c(C3CCC3)nn4-c3ccc(F)cc3)CC2)CC1 [Compound 646] ; % Activation = 447.9

Data point: COCC1CCN(c2cc(C(=O)NS(C)(=O)=O)nc3c2c(C2CCC2)nn3-c2ccnc(OC)c2)CC1 [Compound 385] ; % Activation = 393.53

Data point: O=C(NS(=O)(=O)N1CCCC1)c1cc(N2CCC(N3CCOCC3)CC2)c2c(C3CCC3)nn(-c3ccc(F)cc3)c2n1 [Compound 485] ; % Activation = 399.1

Data point: CN(C)S(=O)(=O)NC(=O)c1cc(N2CCC(N3CCCC(F)C3)CC2)c2c(C3CCC3)nn(-c3ccc(F)cc3)c2n1 (stereo not shown) [Compound 563] ; % Activation = 542.9

----------
# assay system: ΔF508-CFTR (Homo sapiens, UniProt P13569, DEL508-508)
# Construct: host or cells: CFBE41o-, doxycycline-inducible
# test description: CFTR cell surface levels using HRP-tagged ΔF508-CFTR expressing CFBE cells, in the presence of a co-corrector
# Format: cell-based
# settings: HRP-tagged ΔF508-CFTR CFBE cells, in the presence of 3 μM co-corrector
quantity name: % Activation (%)
Write down the numeric answer in % and omit the unit.

Some molecules with known % Activation results, for comparison:
CS(=O)(=O)NC(=O)c1cc(N2CCC(N3CCCCC3)CC2)c2c(C3CCC3)nn(-c3ccccc3)c2n1 [Compound 365]; 469.95
CS(=O)(=O)NC(=O)c1cc(N2CCC3(C2)CC3(F)F)c2c(C3CCC3)nn(-c3ccccc3)c2n1 (stereo not shown) [Compound 202]; 299.4

Data point: CN(C)S(=O)(=O)NC(=O)c1cc(N2CCC(N3CC(C#N)C3)CC2)c2c(C3CCC3)nn(-c3ccc(F)cc3)c2n1 [Compound 523] ; % Activation = 451.33

Data point: Cc1cc(C)cc(-n2nc(C)c3c(-c4ccc(N5CCOCC5)cc4)cc(C(=O)NS(C)(=O)=O)nc32)c1 [Compound 24] ; % Activation = 380.5

----------
# assay system: ΔF508-CFTR (Homo sapiens, UniProt P13569, DEL508-508)
# Construct: host or cells: CFBE41o-, doxycycline-inducible
# test description: CFTR cell surface levels using HRP-tagged ΔF508-CFTR expressing CFBE cells, in the presence of a co-corrector
# Format: cell-based
# settings: HRP-tagged ΔF508-CFTR CFBE cells, in the presence of 3 μM co-corrector; read-out: EC50
Examples of compounds with documented EC50 follow.
For clarity, give the value followed by its unit.

Some compounds with known EC50 results, for comparison:
CC(C)c1nn(-c2cccc(N3CCOCC3)c2)c2nc(C(=O)NS(C)(=O)=O)cc(-c3ccc(N(C)C)nc3)c12; 204 nM
O=C(NS(=O)(=O)C1CCOC1)c1cc(N2CCC(CN3CCOCC3)CC2)c2c(C3CCC3)nn(-c3ccc(F)cc3)c2n1 (centres unmarked); 66.2 nM
CC(C)c1nn(-c2cccc(C(F)(F)F)c2)c2nc(C(=O)NS(C)(=O)=O)cc(-c3ccc(N4CCC(C#N)CC4)cc3)c12; 373 nM
COCC1CCN(c2cc(C(=O)NS(C)(=O)=O)nc3c2c(C(C)C)nn3-c2cccc(N(C)C)c2)CC1; 243 nM

Data point: `CCS(=O)(=O)NC(=O)c1cc(-c2ccc(N3CCOCC3)cc2)c2c(C)nn(-c3cccc(F)c3)c2n1` ; EC50 = 847 nM

Data point: `CC(C)c1nn(-c2cccc(N(C)C)c2)c2nc(C(=O)NS(C)(=O)=O)cc(-c3ccc(N(C)C4CCOCC4)cc3)c12` ; EC50 = 473 nM

Data point: `CC(C)c1nn(-c2ccc(F)cc2)c2nc(C(=O)NS(C)(=O)=O)cc(N3CC[C@@H](O)[C@H](F)C3)c12` ; EC50 = 1060 nM

Data point: `COC1CCN(C2CCN(c3cc(C(=O)NS(N)(=O)=O)nc4c3c(C3CCC3)nn4-c3ccc(F)cc3)CC2)CC1` ; EC50 = 375 nM

Data point: `CC(C)Oc1nn(C2CCCCC2)c2nc(C(=O)NS(C)(=O)=O)cc(-c3ccc(CN4CCN(C)CC45COC5)cc3)c12` ; EC50 = 46.3 nM

Data point: `CCCN(CC)S(=O)(=O)NC(=O)c1cc(N2CCC(COC)CC2)c2c(C3CCC3)nn(-c3ccccc3)c2n1` ; EC50 = 139 nM

----------
# assay system: ΔF508-CFTR (Homo sapiens, UniProt P13569, DEL508-508)
# Construct: host or cells: CFBE41o-, doxycycline-inducible
# test description: CFTR cell surface levels using HRP-tagged ΔF508-CFTR expressing CFBE cells, in the presence of a co-corrector
# Type: cell-based
# settings: HRP-tagged ΔF508-CFTR CFBE cells, in the presence of 3 μM co-corrector; read-out: EC50
quantity name: EC50 (µM)
Write down the numeric answer in µM and omit the unit.

Data point: CC(C)c1nn(C2CCCOC2)c2nc(C(=O)NS(C)(=O)=O)cc(-c3ccc(N4CCC(C#N)CC4)nc3)c12 (stereo not shown) ; EC50 = 0.636

Data point: `CN(C)S(=O)(=O)NC(=O)c1cc(N2CCC(N3CCOC(C)(C)C3)CC2)c2c(C3CCC3)nn(-c3ccc(F)cc3)c2n1` ; EC50 = 0.0585

Data point: `CS(=O)(=O)NC(=O)c1cc(N2CCC(O)(CC#N)CC2)c2c(C3CCC3)nn(-c3ccccc3)c2n1` ; EC50 = 0.73

----------
# assay system: ΔF508-CFTR (Homo sapiens, UniProt P13569, DEL508-508)
# Construct: host or cells: CFBE41o-, doxycycline-inducible
# test description: CFTR cell surface levels using HRP-tagged ΔF508-CFTR expressing CFBE cells, in the presence of a co-corrector
# Format: cell-based
# settings: HRP-tagged ΔF508-CFTR CFBE cells, in the presence of 3 μM co-corrector
quantity name: % Activation (%)
Write down the numeric answer in % and omit the unit.

Some molecules with known % Activation results, for comparison:
CS(=O)(=O)NC(=O)c1cc(N2CCCC3(CC3)C2)c2c(C3CCC3)nn(-c3ccccc3)c2n1; 416.4
CN(C)S(=O)(=O)NC(=O)c1cc(C2CCN(CC3CC3)CC2)c2c(C3CCC3)nn(-c3ccc(F)cc3)c2n1; 152.9
CS(=O)(=O)NC(=O)c1cc(N2CCC(COCc3ccccc3)CC2)c2c(C3CCC3)nn(-c3ccccc3)c2n1; 469.6
O=C(NS(=O)(=O)C1CC1)c1cc(N2CCC(N3CCOCC3)CC2)c2c(C3CCC3)nn(-c3ccccc3)c2n1; 568.6

Per the reported ΔF508-CFTR (Homo sapiens, UniProt P13569, DEL508-508) data, `CC(C)c1nn(-c2cccc(F)c2)c2nc(C(=O)NS(C)(=O)=O)cc(-c3ccc(N4CCC(C#N)CC4)cc3)c12` has % Activation of 465.1

Per the reported ΔF508-CFTR (Homo sapiens, UniProt P13569, DEL508-508) data, `O=C(NS(=O)(=O)CCCN1CCOCC1)c1cc(OCC2CCOCC2)c2c(C3CCC3)nn(-c3ccccc3)c2n1` has % Activation of 301.15

Per the reported ΔF508-CFTR (Homo sapiens, UniProt P13569, DEL508-508) data, CC(C)c1nn(-c2cccc(N3CCC(F)C3)c2)c2nc(C(=O)NS(C)(=O)=O)cc(-c3ccc(N4CCOCC4)cc3)c12 (stereo not shown) has % Activation of 643.27

----------
# assay system: CFTR ΔF508 (Homo sapiens, UniProt P13569, DEL508-508)
# Construct: bronchial epithelial cells isolated from CF patients homozygous for the CFTR ΔF508 mutation; McGill University; Asterand; University of North Carolina hAEC-CF; host or cells: primary human bronchial epithelial cells from CF patients homozygous for ΔF508, differentiated at air-liquid interface
# test description: Chronic TECC assay, primary bronchial epithelial cells of CF patients homozygous for CFTR ΔF508 (corrector, co-corrector and potentiator)
# Assay type: cell-based
# settings: chronic TECC; test compound at 1 μM; AUC = full area under the curve upon forskolin stimulation
quantity name: % Activity at 1 μM (AUC**) (%)
Write down the numeric answer in % and omit the unit.

Some compounds with known % Activity at 1 μM (AUC**) results, for comparison:
COC(C)(C)C1CCN(c2cc(C(=O)NS(C)(=O)=O)nc3c2c(C(C)C)nn3-c2ccc(F)cc2)CC1; 245.9
CCS(=O)(=O)NC(=O)c1cc(N2CCN(c3ccncc3)CC2)c2c(C3CCC3)nn(C3CCCCC3)c2n1; 210
COCCS(=O)(=O)NC(=O)c1cc(N2CCC(N3CCOCC3)CC2)c2c(C3CCC3)nn(-c3ccc(F)cc3)c2n1; 310

Kindly consider the entry below.
Data point: COC(C)C1CCN(c2cc(C(=O)NS(C)(=O)=O)nc3c2c(C2CCC2)nn3-c2ccccc2)CC1 (stereo not shown) ; % Activity at 1 μM (AUC**) = 400
